assay.explanation: Long term stability of model analytes in dried oral fluid stored 30 days on alginate or chitosan foam
Type: physicochemical, human
measurement.context: oral fluid on alginate foam; theoretical 100 ng/ml; stored at 37 C; n = 3
Structures can show the parent of a compound that is named as a salt.
Returns fulfilled if the recorded Measured concentration at day 30 is greater than or equal to 50 ng/mL, and not fulfilled otherwise.

compound="CN[C@@H](C)Cc1ccccc1 [Methamphetamine]" cat="not fulfilled"
compound="CO[C@@]12CC[C@@]3(C[C@@H]1[C@](C)(O)C(C)(C)C)[C@H]1Cc4ccc(O)c5c4[C@@]3(CCN1CC1CC1)[C@H]2O5.Cl [Buprenorphine, buprenorphine hydrochloride]" cat=fulfilled
compound="CCC(=O)C(CC(C)N(C)C)(c1ccccc1)c1ccccc1 (centres unmarked) [Methadone, Methadone hydrochloride]" cat=fulfilled
compound="COc1ccc(CC(C)N)cc1 (centres unmarked) [PMA, para-methoxyamphetamine]" cat=fulfilled

Now examine the next entry.
Tell me whether Measured concentration at day 30 is at least 50 ng/mL here: CNC(C)Cc1ccc(OC)cc1 (centres unmarked) [PMMA, para-methoxymethamphetamine]
fulfilled

====

assay.explanation: Long term stability of model analytes in dried oral fluid stored 30 days on alginate or chitosan foam
Format: physicochemical, human
measurement.context: oral fluid on alginate foam; theoretical 500 ng/ml; stored at −18 C; n = 3
Structures can show the parent of a compound that is named as a salt.
Measured concentration at day 30 overview
Write the value in ng/mL as a bare number.

Consider the compound shown here: CCC(=O)C(CC(C)N(C)C)(c1ccccc1)c1ccccc1 (centres unmarked) [Methadone, Methadone hydrochloride] What is its recorded Measured concentration at day 30?
602

====

Entries and their measured Measured concentration at day 30 follow.
assay.explanation: Long term stability of model analytes in dried oral fluid stored 30 days on alginate or chitosan foam
Format: physicochemical, human
measurement.context: oral fluid on alginate foam; theoretical 500 ng/ml; stored at 37 C; n = 3
The reply should contain only the number, in ng/mL.

molecule="COc1ccc(CC(C)N)cc1 (stereo not shown)" endpoint_value=406
molecule=CN[C@@H](C)Cc1ccccc1 endpoint_value=319
molecule="CNC(C)Cc1ccc(OC)cc1 (stereo not shown)" endpoint_value=475

In the following, a different molecule is considered.
What value of Measured concentration at day 30 has been reported for the following molecule? CO[C@@]12CC[C@@]3(C[C@@H]1[C@](C)(O)C(C)(C)C)[C@H]1Cc4ccc(O)c5c4[C@@]3(CCN1CC1CC1)[C@H]2O5.Cl [Buprenorphine, buprenorphine hydrochloride]
656

====

assay.explanation: Long term stability of model analytes in dried oral fluid stored 30 days on alginate or chitosan foam
Format: physicochemical, human
measurement.context: oral fluid on chitosan foam; theoretical 500 ng/ml; stored at −18 C; n = 3
Counter-ions that a name gives are not always drawn.
readout.name: Measured concentration at day 30

compound=CN[C@@H](C)Cc1ccccc1 readout_name="Measured concentration at day 30" endpoint_value="732 ng/mL"
compound="CO[C@@]12CC[C@@]3(C[C@@H]1[C@](C)(O)C(C)(C)C)[C@H]1Cc4ccc(O)c5c4[C@@]3(CCN1CC1CC1)[C@H]2O5.Cl [Buprenorphine, buprenorphine hydrochloride]" readout_name="Measured concentration at day 30" endpoint_value="611 ng/mL"
compound="CNC(C)Cc1ccc(OC)cc1 (centres unmarked)" readout_name="Measured concentration at day 30" endpoint_value="769 ng/mL"
compound="COc1ccc(CC(C)N)cc1 (centres unmarked)" readout_name="Measured concentration at day 30" endpoint_value="769 ng/mL"

# lookup: Measured concentration at day 30 of CCC(=O)C(CC(C)N(C)C)(c1ccccc1)c1ccccc1 (centres unmarked) [Methadone, Methadone hydrochloride]
599 ng/mL

====

assay.explanation: Long term stability of model analytes in dried oral fluid stored 30 days on alginate or chitosan foam
Assay type: physicochemical, human
measurement.context: oral fluid on alginate foam; theoretical 500 ng/ml; stored at −18 C; n = 3
readout.name: Measured concentration at day 30 (ng/mL)
Report only the number, with the unit ng/mL understood.

Sample answers from the record:
molecule="CO[C@@]12CC[C@@]3(C[C@@H]1[C@](C)(O)C(C)(C)C)[C@H]1Cc4ccc(O)c5c4[C@@]3(CCN1CC1CC1)[C@H]2O5.Cl [Buprenorphine, buprenorphine hydrochloride]" readout_name="Measured concentration at day 30" units_symbol=ng/mL endpoint_value=656
molecule="CN[C@@H](C)Cc1ccccc1 [Methamphetamine]" readout_name="Measured concentration at day 30" units_symbol=ng/mL endpoint_value=687

Fill in: Measured concentration at day 30 of COc1ccc(CC(C)N)cc1 (stereo not shown) [PMA, para-methoxyamphetamine] is ___
717

Please give the measured Measured concentration at day 30 for this molecule: CNC(C)Cc1ccc(OC)cc1 (stereo not shown) [PMMA, para-methoxymethamphetamine]
726
